FYI, the data here is from patent US12059425B2.

SYSTEM: wildtype K-Ras (Homo sapiens)
Construct: made in house; host or cells: E. coli, e.g. BL21 (DE3)
Sequence (P01116 1-188 isoform P01116-2): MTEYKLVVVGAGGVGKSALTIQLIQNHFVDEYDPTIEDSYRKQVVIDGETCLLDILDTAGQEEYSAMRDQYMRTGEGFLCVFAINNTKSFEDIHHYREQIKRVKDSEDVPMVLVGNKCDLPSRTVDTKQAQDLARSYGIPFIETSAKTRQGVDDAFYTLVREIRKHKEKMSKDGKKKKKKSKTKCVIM
METHOD SUMMARY: PPI-HTRF assay, wildtype K-Ras / SOS1 interaction
Assay type: biochemical
REPORTED CONDITIONS: HTRF, K-Ras wt; read-out: PPI-HTRF-5 nM (K-Ras wt IC50)
The molecules listed here are annotated with their IC50.

Here's what some known entries look like.
N#Cc1c(N)sc2c(F)ccc(-c3c(Cl)c4c5c(nc(OC[C@@]67CCCN6C[C@H](F)C7)nc5c3F)N3CCC[C@@H]3CO4)c12 ... < 5 µM
CC(C)C1NCC12CC[C@H]1COc3c(Cl)c(-c4ccc(F)c5sc(N)c(C#N)c45)c(F)c4nc(OC[C@@]56CCCN5C[C@H](F)C6)nc(c34)N1C2 (single isomer, unassigned) ... < 5 µM
N#Cc1c(N)sc2c(F)ccc(-c3c(Cl)c4c5c(nc(OCC67CCCN6C[C@H](F)C7)nc5c3F)N3CCC(OC(F)F)CC3CO4)c12 (single isomer, unassigned) ... < 5 µM
N#Cc1c(N)sc2c(F)ccc(-c3c(Cl)c4c5c(nc(OC[C@@]67CCCN6C[C@H](F)C7)nc5c3F)N3CCOCC3CO4)c12 (some centres unmarked) ... < 5 µM
N#Cc1c(N)sc2c(F)ccc(-c3c(Cl)c4c5c(nc(OC[C@@]67CCCN6C[C@H](F)C7)nc5c3F)N3CCNCCC3CO4)c12 (some centres unmarked) ... < 5 µM

Query string: Which IC50 value is on record for N#Cc1c(N)sc2c(F)ccc(-c3c(Cl)c4c5c(nc(OC[C@@]67CCCN6C[C@H](F)C7)nc5c3F)N3CCCC(O)C3CO4)c12 (some centres unmarked) ?
Result string: < 5 µM

Query string: Could you do the same for N#Cc1c(N)sc2c(F)ccc(-c3c(Cl)c4c5c(nc(OC[C@@]67CCCN6C[C@H](F)C7)nc5c3F)N3CCN(C=O)CCC3CO4)c12 (some centres unmarked) , please?
Result string: < 5 µM

Query string: Could you do the same for CC(O)C1C[C@H]2CCCN2c2nc(OC[C@@]34CCCN3C[C@H](F)C4)nc3c(F)c(-c4ccc(F)c5sc(N)c(C#N)c45)c(Cl)c(c23)O1 (single isomer, unassigned) , please?
Result string: < 5 µM

Query string: Could you do the same for N#Cc1c(N)sc2c(F)ccc(-c3c(Cl)c4c5c(nc(OC[C@@]67CCCN6C[C@H](F)C7)nc5c3F)N3CCC[C@@H]3CCO4)c12 , please?
Result string: < 5 µM

Query string: Could you do the same for COCCN1c2nc(OC[C@@]34CCCN3C[C@H](F)C4)nc3c(F)c(-c4ccc(F)c5sc(N)c(C#N)c45)c(Cl)c(c23)OCC2COCC21 (some centres unmarked) , please?
Result string: < 5 µM

Query string: Could you do the same for CN1c2nc(OC[C@@]34CCCN3C[C@H](F)C4)nc3c(F)c(-c4ccc(F)c5sc(N)c(C#N)c45)c(Cl)c(c23)OC2COCC21 (some centres unmarked) , please?
Result string: < 5 µM

---

SYSTEM: K-Ras G12V (Homo sapiens, UniProt P01116, G12V)
Construct: made in house; host or cells: E. coli, e.g. BL21 (DE3)
Sequence (P01116 1-188 isoform P01116-2 G12V): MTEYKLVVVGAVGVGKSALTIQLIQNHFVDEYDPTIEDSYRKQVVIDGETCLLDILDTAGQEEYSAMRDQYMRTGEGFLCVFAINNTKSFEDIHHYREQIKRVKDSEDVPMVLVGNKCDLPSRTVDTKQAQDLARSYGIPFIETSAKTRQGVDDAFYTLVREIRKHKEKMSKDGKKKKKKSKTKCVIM
METHOD SUMMARY: PPI-HTRF assay, K-Ras G12V / SOS1 interaction
Format: biochemical
REPORTED CONDITIONS: HTRF, K-Ras G12V; read-out: PPI-HTRF-5 nM (K-Ras G12V IC50)
Text: This assay can be also used to assess a selective inhibition or reduction of signaling output of a mutant Ras protein relative to a wildtype, or relative to a different mutant Ras protein. For example, the equilibrium interaction of wildtype Kras or K-Ras mutant (e.g., wildtype or a mutant thereof) with SOS1 (e.g., hSOS1) can be assessed as a proxy or an indication for a subject compound's ability to bind and inhibit Ras protein. […]
pIC50: −log10 of the molar value.
The compounds listed here are annotated with their pIC50.

Here's what some known entries look like.
N#Cc1c(N)sc2c(F)ccc(-c3c(Cl)c4c5c(nc(OC[C@@]67CCCN6C[C@H](F)C7)nc5c3F)N3CC5(CCCC3CCO4)CN(C(=O)C3CC3(F)F)C5)c12 (some centres unmarked) ... > 5.30
CN1c2nc(OC[C@@]34CCCN3C[C@H](F)C4)nc3c(F)c(-c4ccc(F)c5sc(N)c(C#N)c45)c(Cl)c(c23)OCC2COCC21 (some centres unmarked) ... > 5.30

Query string: Which pIC50 value is on record for N#Cc1c(N)sc2c(F)ccc(-c3c(Cl)c4c5c(nc(OC[C@@]67CCCN6C[C@H](F)C7)nc5c3F)N3CCN(C=O)CCC3CO4)c12 (some centres unmarked) ?
Result string: > 5.30

Query string: Could you do the same for N#Cc1c(N)sc2c(F)ccc(-c3c(Cl)c4c5c(nc(OC[C@@]67CCCN6C[C@H](F)C7)nc5c3F)N3CCC3CO4)c12 (some centres unmarked) , please?
Result string: > 5.30
